- run.description: Stability in cryopreserved hepatocytes, rat
- Experimental: Mixed-gender human cryopreserved hepatocytes, male Sprague-Dawley rat cryopreserved hepatocytes, and male Beagle dog cryopreserved hepatocytes were purchased from XenoTech. […] An aliquot of the supernatant was then diluted with water and analyzed by LC-MS/MS against calibration standards prepared in a matched matrix. […] All test article samples were analyzed for the dosed prodrugs as well as the drug, treprostinil. […]
Property: Trep Concentration (μM) 60 min; scope: individual compounds
Number only, in µM; omit the unit.

Before answering, review these 3 worked examples.
CCCCCC(CCC1C(O)CC2Cc3c(cccc3OCC(=O)O)CC21)OC(=O)N1CCC(O)CC1 (stereo not shown) [LVIII]    0
CCCCCC(CCC1C(O)CC2Cc3c(cccc3OCC(=O)O)CC21)OC(=O)C(C)(C)C (stereo not shown) [XLIX]    0.0182
CCCCCC(CCC1C(OC(=O)CC)CC2Cc3c(cccc3OCC(=O)O)CC21)OC(=O)CC (stereo not shown) [Prodrug LXX, treprostinil dipropionate]    0.484

Next:
Please fill in: Trep Concentration (μM) 60 min reported for CCCCCC(CCC1C(O)CC2Cc3c(cccc3OCC(=O)O)CC21)OC(=O)c1ccc(O)cc1 (stereo not shown) [LXVIII] = 0.00545

====

- run.description: Hydrolysis of prodrugs to treprostinil at pH 6, 7, 8 and 40 C
- Format: physicochemical
- experimental.conditions: pH 6, 40 C., 2 weeks
measured.quantity: Hydrolysis to treprostinil, % Area, t = 2 weeks (% Area)
# value in % Area; strip the unit string

CCCCCC(CCC1C(O)CC2Cc3c(cccc3OCC(=O)O)CC21)OC(=O)c1ccc(O)c(O)c1 (centres unmarked) [Prodrug LXVI]    1.2
CCCCCC(CCC1C(OC(=O)CC)CC2Cc3c(cccc3OCC(=O)O)CC21)OC(=O)CC (centres unmarked) [Prodrug LXX, treprostinil dipropionate]    0.00
CCCCCC(CCC1C(O)CC2Cc3c(cccc3OCC(=O)O)CC21)OC(=O)C(C)C (centres unmarked) [Prodrug LXVII]    0.00
CCCCCC(CCC1C(OC(=O)OC)CC2Cc3c(cccc3OCC(=O)O)CC21)OC(=O)OC (centres unmarked) [Prodrug LXXI, treprostinil dicarbonate]    0.00
CCCCCC(CCC1C(O)CC2Cc3c(cccc3OCC(=O)O)CC21)OC(=O)c1ccc(O)cc1 (centres unmarked) [Prodrug LXVIII]    0.00
CCCCCC(CCC1C(O)CC2Cc3c(cccc3OCC(=O)O)CC21)OC(=O)C12CC3CC(CC(C3)C1)C2 (centres unmarked) [Prodrug LXIX]    0.00
CCCCCC(CCC1C(O)CC2Cc3c(cccc3OCC(=O)O)CC21)OC(=O)COc1ccccc1 (centres unmarked) [Prodrug LXV]    0.29

Measured Hydrolysis to treprostinil, % Area, t = 2 weeks, CCCCCC(CCC1C(O)CC2Cc3c(cccc3OCC(=O)O)CC21)OC(=O)COc1ccc(OC(F)(F)F)cc1 (centres unmarked) [Prodrug LXIV] : 1.2

====

- run.description: Stability in liver microsomes, human
Label No if Trep Concentration 30 min falls below 0.3 µM; label Yes in every other case.

For orientation, consider the following solved cases.
CCCCCC(CCC1C(O)CC2Cc3c(cccc3OCC(=O)O)CC21)OCCN1CCOCC1 (stereo not shown)    No
CCCCCC(CCC1C(O)CC2Cc3c(cccc3OCC(=O)O)CC21)OC(=O)CO (stereo not shown)    Yes
CCCCCC(CCC1C(O)CC2Cc3c(cccc3OCC(=O)O)CC21)OC(=O)CCN (stereo not shown)    No
CCCCCC(CCC1C(O)CC2Cc3c(cccc3OCC(=O)O)CC21)OC(=O)c1ccc(O)c(O)c1 (stereo not shown)    No

Q) Is reported Trep Concentration 30 min greater than or equal to 0.3 µM here: "CCCCC[C@H]1CC[C@@H]2[C@H]3Cc4cccc(OCC(=O)O)c4C[C@H]3C[C@H]2OC(=O)O1"
A) Yes

Q) Decide: Trep Concentration 30 min of CCCCCC(O)CCC1C(OC(=O)CCC(=O)O)CC2Cc3c(cccc3OCC(=O)O)CC21 (stereo not shown) >= 0.3 µM?
A) No

Q) Could you verify whether the entry CCCCCC(CCC1C(O)CC2Cc3c(cccc3OCC(=O)O)CC21)OC(=O)c1ccc(OC(F)(F)F)cc1 (stereo not shown) shows Trep Concentration 30 min of no less than 0.3 µM?
A) No

Q) Is Trep Concentration 30 min for CCCCCC(CCC1C(O)CC2Cc3c(cccc3OCC(=O)O)CC21)OC(=O)COc1ccc(O)cc1 (stereo not shown) at or above 0.3 µM?
A) Yes

Q) Please check the record CCCCCC(CCC1C(O)CC2Cc3c(cccc3OCC(=O)O)CC21)OC(=O)N1CCC(O)CC1 (stereo not shown) and state if its Trep Concentration 30 min is at or above 0.3 µM.
A) No

Q) Item CCCCCC(CCC1C(O)CC2Cc3c(cccc3OCC(=O)O)CC21)OCOC(=O)C(C)(C)C (stereo not shown) with Trep Concentration 30 min of 0.3 µM or above?
A) Yes

Q) Check this compound for Trep Concentration 30 min at or above 0.3 µM: CCCCCC(CCC1C(O)CC2Cc3c(cccc3OCC(=O)O)CC21)OC(=O)C12CC3CC(CC(C3)C1)C2 (stereo not shown)
A) Yes

Q) Tell me whether Trep Concentration 30 min is at least 0.3 µM here: CCCCCC(CCC1C(O)CC2Cc3c(cccc3OCC(=O)O)CC21)OC(=O)c1cccc(O)c1 (stereo not shown)
A) No

Q) Reported Trep Concentration 30 min reaches at least 0.3 µM for CCCCCC(CCC1C(O)CC2Cc3c(cccc3OCC(=O)O)CC21)OC(=O)c1ccc(O)cc1 (stereo not shown) ?
A) No

Q) Evaluate CCCCCC(CCC1C(O)CC2Cc3c(cccc3OCC(=O)O)CC21)OC(=O)NCCO (stereo not shown) : Trep Concentration 30 min at minimum 0.3 µM?
A) No

Q) Is Trep Concentration 30 min at least 0.3 µM? Consider CCCCCC(CCC1C(O)CC2Cc3c(cccc3OCC(=O)O)CC21)OC(=O)c1ccc(C)cc1 (stereo not shown)
A) Yes

Q) For this compound, is measured Trep Concentration 30 min 0.3 µM or higher? CCCCCC(CCC1C(O)CC2Cc3c(cccc3OCC(=O)O)CC21)Oc1ccccc1C(=O)O (stereo not shown)
A) No

Q) Is Trep Concentration 30 min at least 0.3 µM? Consider CCCCCC(CCC1C(O)CC2Cc3c(cccc3OCC(=O)O)CC21)OC(=O)COc1ccccc1 (stereo not shown)
A) Yes

Q) Is Trep Concentration 30 min for CCCCCC(CCC1C(O)CC2Cc3c(cccc3OCC(=O)O)CC21)OC(=O)OCC (stereo not shown) at or above 0.3 µM?
A) Yes

Q) Does Trep Concentration 30 min meet or surpass 0.3 µM for CCCCCC(CCC1C(O)CC2Cc3c(cccc3OCC(=O)O)CC21)OC(=O)C(C)(C)C (stereo not shown) ?
A) No
